System: UACC-257 melanoma
Test: NCI-60 one-dose screen, 48 h (100 = growth as untreated, 0 = no growth, -100 = all killed)
Conditions: 10 µM unless noted
Method: Cells are grown in 96 well plates and exposed to the test compound for 48 hours. Compounds are tested at a single concentration, which is 10^-5 M for most compounds. The reported endpoint is percent growth (GI% or GIPRCNT), where numbers from 0 - 100% represent growth inhibition, and numbers from -100% - 0 represent cell death. For example, a value of 40 represents 60% growth inhibition. A value of 0 means no net growth occurred over the course of the experiment. […]
About 83,000 compounds went through this panel and 20% of them were active in at least one assay; those are over-represented in the sample as a whole.
Please mark condition met if the recorded growth is equal to or greater than 70%, and condition not met if it falls below.

* CCC(CC)NCC(C)(C)O | condition met
* O=C(Cn1c[n+](CC(=O)c2ccc([N+](=O)[O-])cc2)c2ccccc21)Nc1cccc2cccnc12 | condition not met
* O=S(=O)(NCCNc1nccc(-c2c(-c3cccc(F)c3)nc3sccn23)n1)c1ccccc1 | condition not met
* CCCCC[n+]1ccc(SCC(=O)N(C)c2ccc(Oc3ccccc3)cc2)c2ccccc21 | condition met

// next entry
Request: Threshold query (growth >= 70%) on NS(=O)(=O)c1ccc(CCn2c(SCC(=O)c3ccc(Cl)cc3)nc3ccccc3c2=O)cc1
Result: condition met
